Numbers sourced from patent US12486234B2.

biological target: PAPD5 (Homo sapiens); construct: made in house; experiment: RNA oligo-adenylation (oligo-extension) inhibition assay with recombinant PAPD5; format: biochemical; parameters: key: minimal activity (0); range from minimal activity (0) to that of compound 1 (+++); range from minimal activity (0) to that of compound 1 (+++); that of compound 1 (+++); details: qualitative measure of RNA oligo-extension inhibition, relative to compound 1
Sequence (Q8NDF8 68-698 isoform Q8NDF8-5 limits assumed): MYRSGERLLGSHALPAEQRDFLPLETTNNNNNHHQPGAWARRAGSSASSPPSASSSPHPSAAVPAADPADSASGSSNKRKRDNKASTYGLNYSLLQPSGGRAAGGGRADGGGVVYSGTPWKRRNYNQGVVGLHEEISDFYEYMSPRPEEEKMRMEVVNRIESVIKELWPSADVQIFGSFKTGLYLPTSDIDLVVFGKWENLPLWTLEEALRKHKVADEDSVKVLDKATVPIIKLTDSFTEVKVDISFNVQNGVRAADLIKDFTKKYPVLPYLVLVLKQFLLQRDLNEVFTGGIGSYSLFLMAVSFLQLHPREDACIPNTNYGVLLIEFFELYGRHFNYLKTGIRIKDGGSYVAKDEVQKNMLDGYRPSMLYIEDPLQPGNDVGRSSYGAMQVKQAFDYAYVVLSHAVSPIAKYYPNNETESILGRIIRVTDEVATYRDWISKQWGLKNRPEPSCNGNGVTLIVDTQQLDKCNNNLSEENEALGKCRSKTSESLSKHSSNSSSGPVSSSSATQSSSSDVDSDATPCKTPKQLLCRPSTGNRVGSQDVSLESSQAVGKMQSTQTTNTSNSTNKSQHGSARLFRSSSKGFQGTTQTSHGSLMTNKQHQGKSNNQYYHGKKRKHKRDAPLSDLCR
Parameter: Inhibition of PAPD5 RNA oligo adenylation

// known answers, use as guide
[[record]]
compound = "NS(=O)(=O)c1cnc2ccc(Br)cc2c1Nc1ccccc1C(=O)O [Compound 61A]"
value_reported = "+++"

[[record]]
compound = "O=C(O)c1ccccc1Nc1c(C(=O)N2CCOCC2)cnc2ccc(OC(F)(F)F)cc12 [Compound 13A]"
value_reported = "+"

[[record]]
compound = "CCOC(=O)c1cnc2ccc(-c3cccc4[nH]ccc34)cc2c1Nc1ccccc1C(=O)O [Compound 23A]"
value_reported = "+++"

[[record]]
compound = "N#Cc1cnc2ccc(-c3cccc4ncccc34)cc2c1Nc1ccccc1C(=O)O [Compound 54A]"
value_reported = "+++"

[[record]]
compound = "COCCCOc1cc2ncc(-c3ncco3)c(Nc3ccccc3C(=O)O)c2cc1OC [Compound 58A]"
value_reported = "+"


Please list Inhibition of PAPD5 RNA oligo adenylation recorded for the compound O=C(O)c1c(O)cccc1Nc1c(-c2ncco2)cnc2ccc(Cl)cc12 [Compound 82A]
+++

Please list Inhibition of PAPD5 RNA oligo adenylation recorded for the compound O=C(O)c1ccccc1Nc1c(-c2ncco2)cnc2ccc(OC(F)(F)F)cc12 [Compound 17A]
+++

Please list Inhibition of PAPD5 RNA oligo adenylation recorded for the compound COCCCOc1cc2ncc(C(=O)N3CCOCC3)c(Nc3ccccc3C(=O)O)c2cc1OC [Compound 53A]
+

Please list Inhibition of PAPD5 RNA oligo adenylation recorded for the compound CCOC(=O)c1cnc2ccc(OC(F)(F)F)cc2c1Nc1ccccc1-c1nn[nH]n1 [Compound 10A]
+

Please list Inhibition of PAPD5 RNA oligo adenylation recorded for the compound CN(C)C(=O)c1cnc2ccc(OC(F)(F)F)cc2c1Nc1ccccc1C(=O)O [Compound 12A]
+
